System: Escherichia coli
measurementDescription: In vitro antibacterial activity against Escherichia coli 1919
Format: functional
propertyName: MIC (µg/mL)
Just the number please, in µg/mL, no unit attached.

Please review the entries below; each comes with its answer.
molecule	MIC (µg/mL)
CO[C@@H]1CCC[C@@H]2C1=C(C(=O)[O-])N1C(=O)[C@H]([C@@H](C)O)C21.[K+] (some centres not stated)	16
CO[C@H]1CCC[C@@H]2C1=C(C(=O)[O-])N1C(=O)[C@H]([C@@H](C)O)C21.[K+] (some centres not stated)	16
CO[C@@H]1CCC[C@H]2C1=C(C(=O)[O-])N1C(=O)[C@H]([C@@H](C)O)C21.[K+] (some centres not stated)	4
CO[C@@]12CCCCC1=C(C(=O)[O-])N1C(=O)[C@H]([C@@H](C)O)[C@H]12.[K+]	4
CO[C@H]1CCC[C@H]2C1=C(C(=O)[O-])N1C(=O)[C@H]([C@@H](C)O)C21.[K+] (some centres not stated)	0.5

Name the reported MIC value associated with the molecule C[C@@H](O)[C@H]1C(=O)N2C(C(=O)O)=C(SCCNC=N)C[C@H]12.O [IMIPENEM]
0.5

Now try CO[C@]12CCCCC1=C(C(=O)[O-])N1C(=O)[C@H]([C@@H](C)O)[C@H]12.[K+] .
8
